// reported IC50 per item
# Tested system: mTOR (Homo sapiens, UniProt P42345)
# Construct: purchased Invitrogen
# Sequence (P42345 1360-2549 limits assumed): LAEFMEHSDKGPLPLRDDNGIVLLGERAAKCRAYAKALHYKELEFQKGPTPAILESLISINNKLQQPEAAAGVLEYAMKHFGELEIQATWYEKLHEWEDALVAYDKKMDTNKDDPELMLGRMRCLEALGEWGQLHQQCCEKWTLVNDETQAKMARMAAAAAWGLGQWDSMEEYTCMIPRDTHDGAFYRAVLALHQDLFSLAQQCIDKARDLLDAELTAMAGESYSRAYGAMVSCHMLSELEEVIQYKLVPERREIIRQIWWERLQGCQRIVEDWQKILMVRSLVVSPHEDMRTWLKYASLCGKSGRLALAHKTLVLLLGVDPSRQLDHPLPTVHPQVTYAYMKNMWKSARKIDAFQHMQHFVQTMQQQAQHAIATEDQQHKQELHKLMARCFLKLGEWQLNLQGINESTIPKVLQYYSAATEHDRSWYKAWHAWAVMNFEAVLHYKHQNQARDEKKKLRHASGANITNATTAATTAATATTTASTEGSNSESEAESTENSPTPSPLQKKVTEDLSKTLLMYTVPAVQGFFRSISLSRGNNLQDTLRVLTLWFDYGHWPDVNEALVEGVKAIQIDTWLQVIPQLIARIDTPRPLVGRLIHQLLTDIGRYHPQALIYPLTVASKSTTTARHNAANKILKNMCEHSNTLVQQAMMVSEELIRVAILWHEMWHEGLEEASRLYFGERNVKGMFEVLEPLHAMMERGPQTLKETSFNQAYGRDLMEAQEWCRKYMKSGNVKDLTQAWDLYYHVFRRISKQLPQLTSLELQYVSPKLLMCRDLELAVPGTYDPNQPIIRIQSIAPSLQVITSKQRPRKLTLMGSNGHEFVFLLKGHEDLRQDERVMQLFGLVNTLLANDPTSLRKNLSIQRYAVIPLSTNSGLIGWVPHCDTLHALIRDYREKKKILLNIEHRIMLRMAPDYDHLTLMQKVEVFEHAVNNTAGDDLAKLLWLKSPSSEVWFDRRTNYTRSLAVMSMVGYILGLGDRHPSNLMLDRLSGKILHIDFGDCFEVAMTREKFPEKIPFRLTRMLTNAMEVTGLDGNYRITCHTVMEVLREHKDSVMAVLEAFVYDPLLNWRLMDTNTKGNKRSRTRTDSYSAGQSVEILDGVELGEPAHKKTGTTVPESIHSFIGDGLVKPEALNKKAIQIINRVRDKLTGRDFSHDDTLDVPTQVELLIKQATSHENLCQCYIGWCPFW
# Protocol summary: mTOR kinase inhibition assay (radiometric or LanthaScreen TR-FRET)
# Type: biochemical
# Particulars: Table 2; read-out: mTORC IC50
Result type: IC50

>>> result("CNC(=O)CCn1nc(-c2cc3cc(O)ccc3[nH]2)c2c(N)ncnc21")
"> 500 nM"
>>> result("Nc1ncnc2c1c(-c1cc3cccc(O)c3[nH]1)nn2C1CCCC1")
"< 10 nM"
>>> result("Nc1ncnc2c1c(-c1cc3cccc(O)c3[nH]1)nn2C1CCN(C(=O)C2CC2)CC1")
"< 10 nM"
>>> result("CC(C)N1CCC(n2nc(-c3cc4cc(O)ccc4[nH]3)c3c(N)ncnc32)CC1")
"< 500 nM"
>>> result("CC(C)N1CCC(n2nc(-c3cc4c(Cl)ccc(O)c4[nH]3)c3c(N)ncnc32)CC1")
"< 100 nM"
>>> result("COc1ccc2cc(-c3nn(C4CCOCC4)c4ncnc(N)c34)[nH]c2c1")
"> 500 nM"
>>> result("COc1cccc2cc(-c3nn(C4CCN(C(=O)C5CC5)CC4)c4ncnc(N)c34)[nH]c12")
"> 500 nM"
>>> result("Nc1ncnc2c1c(-c1cc3cc(O)ccc3[nH]1)nn2Cc1cccnc1")
"< 500 nM"
>>> result("CC(=O)N1CCC(n2nc(-c3cc4cc(O)ccc4[nH]3)c3c(N)ncnc32)CC1")
"< 25 nM"
>>> result("Nc1ncnc2c1c(-c1cc3cc(O)ccc3[nH]1)nn2C1CC(O)C1 (stereo not shown)")
"< 25 nM"
